Target: CRM1 (Homo sapiens)
Construct: HeLa cells expressing GFP that was N-terminally fused to a nuclear localization and C-terminally fused to the nuclear export signal of PKI; endogenous in cells
Sequence (O14980 whole entry, the tested form may be a part): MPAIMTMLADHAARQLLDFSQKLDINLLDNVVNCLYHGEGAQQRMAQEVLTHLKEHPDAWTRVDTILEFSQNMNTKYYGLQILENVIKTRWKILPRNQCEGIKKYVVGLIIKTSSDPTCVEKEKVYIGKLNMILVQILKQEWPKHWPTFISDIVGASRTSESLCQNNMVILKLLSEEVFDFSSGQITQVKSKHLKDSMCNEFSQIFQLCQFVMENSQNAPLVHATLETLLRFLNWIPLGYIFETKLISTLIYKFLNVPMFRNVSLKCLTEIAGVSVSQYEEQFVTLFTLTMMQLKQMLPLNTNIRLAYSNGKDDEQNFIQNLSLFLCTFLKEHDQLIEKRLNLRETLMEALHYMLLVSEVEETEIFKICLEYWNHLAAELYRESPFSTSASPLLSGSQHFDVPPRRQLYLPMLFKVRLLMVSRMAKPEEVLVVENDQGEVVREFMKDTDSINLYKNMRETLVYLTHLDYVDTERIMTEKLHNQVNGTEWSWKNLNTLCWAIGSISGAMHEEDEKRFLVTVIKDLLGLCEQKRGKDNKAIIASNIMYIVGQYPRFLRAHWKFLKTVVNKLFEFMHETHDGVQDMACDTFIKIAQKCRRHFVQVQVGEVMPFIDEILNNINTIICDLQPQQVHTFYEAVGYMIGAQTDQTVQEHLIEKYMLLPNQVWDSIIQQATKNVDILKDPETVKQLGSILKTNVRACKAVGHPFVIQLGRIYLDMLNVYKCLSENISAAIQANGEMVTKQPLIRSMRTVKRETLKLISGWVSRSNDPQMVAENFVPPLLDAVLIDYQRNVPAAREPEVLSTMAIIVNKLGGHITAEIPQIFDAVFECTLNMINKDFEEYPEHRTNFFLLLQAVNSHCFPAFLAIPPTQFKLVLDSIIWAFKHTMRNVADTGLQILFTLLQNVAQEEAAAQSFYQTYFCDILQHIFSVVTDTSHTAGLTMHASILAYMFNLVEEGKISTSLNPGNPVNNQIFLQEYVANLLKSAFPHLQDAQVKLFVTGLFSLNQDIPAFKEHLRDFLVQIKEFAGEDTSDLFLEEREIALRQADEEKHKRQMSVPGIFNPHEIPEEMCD
Experiment: CRM1-mediated nuclear export assay (GFP nuclear localization in HeLa cells)
Settings: HeLa cells expressing NLS-GFP-NES(PKI), 3 hours, concentration at which approximately 50% of the cells showed nuclear GFP
Friendly reminder: EC50 below 4000 nM is class 1, at or above is class 0.

C=C(Cn1cnc(-c2cc(C(F)(F)F)cc(C(F)(F)F)c2)n1)C(=O)OC(C)C :: class 1
C=C(Cn1cnc(-c2cc(C(F)(F)F)cc(C(F)(F)F)c2)n1)C(=O)N1CC(F)(F)C1 :: class 1
C=C(Cn1nnc(-c2ccccc2)n1)C(=O)N1CCCCC1 :: class 0
C=C(Cn1cnc(-c2cc(C(F)(F)F)cc(C(F)(F)F)c2)n1)c1nnco1 :: class 1
C=C(Cn1cnc(-c2cc(OC)cc(C(F)(F)F)c2)n1)C(=O)OCC :: class 1
C=C(Cn1nnc(-c2cc(C(F)(F)F)cc(C(F)(F)F)c2)n1)C(=O)OC(C)C :: class 0

[Q] Does this molecule meet the criterion EC50 < 4000 nM? `C=C(Cn1cnc(-c2cc(OC)cc(C(F)(F)F)c2)n1)C(=O)OC(C)C`
[A] class 1

[Q] Try `C=C(Cn1nnc(-c2ccccc2)n1)c1nnco1` next.
[A] class 0

[Q] Try `C=C(Cn1cnc(-c2cc(C(F)(F)F)cc(C(F)(F)F)c2)n1)C(=O)NNc1ccccn1` next.
[A] class 1
